- Target Under Test: human PKCθ full length enzyme (Homo sapiens)
- Construct: human PKCθ full length enzyme (Panvera Cat# P2996); purchased Panvera P2996
- Sequence (Q04759 whole entry): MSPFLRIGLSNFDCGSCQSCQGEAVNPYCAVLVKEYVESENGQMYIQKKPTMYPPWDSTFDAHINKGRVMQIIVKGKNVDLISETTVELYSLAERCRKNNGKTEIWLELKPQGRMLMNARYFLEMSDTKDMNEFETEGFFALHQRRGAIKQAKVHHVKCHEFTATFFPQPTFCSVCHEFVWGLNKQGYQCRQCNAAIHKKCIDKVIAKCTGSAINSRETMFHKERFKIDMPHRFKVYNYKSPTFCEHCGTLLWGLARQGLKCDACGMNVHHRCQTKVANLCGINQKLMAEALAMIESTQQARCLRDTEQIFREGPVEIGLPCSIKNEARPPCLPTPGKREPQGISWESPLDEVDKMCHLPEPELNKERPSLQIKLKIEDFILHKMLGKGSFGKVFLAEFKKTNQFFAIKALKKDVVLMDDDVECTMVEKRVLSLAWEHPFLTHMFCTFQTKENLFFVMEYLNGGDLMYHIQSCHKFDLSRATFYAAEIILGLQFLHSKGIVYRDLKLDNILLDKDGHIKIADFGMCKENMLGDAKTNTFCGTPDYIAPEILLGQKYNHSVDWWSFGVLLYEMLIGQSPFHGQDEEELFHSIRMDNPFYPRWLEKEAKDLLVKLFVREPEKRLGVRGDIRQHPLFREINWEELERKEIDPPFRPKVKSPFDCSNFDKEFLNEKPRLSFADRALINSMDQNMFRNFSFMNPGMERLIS
- Experiment Notes: PKCθ IMAP assay (fluorescence polarization)
- Type: biochemical
- Condition Summary: human PKCθ full length enzyme, IMAP; average value; read-out: IC50 PKCθ IMAP
Readout Name: IC50 (nM)

Examples with their reported IC50 follow.
Compound	Endpoint Result
COCCCNCc1ccc2sc(-c3cncc(C#N)c3Nc3cccc4[nH]ccc34)cc2c1 [Compound 276]	2
Cc1c(Nc2c(C#N)cncc2-c2cnc(N3CCCC3)nc2)ccc2[nH]ccc12 [Compound 512]	215
CN1CCN(CCOc2ccc(-c3cncc(C#N)c3Nc3cccc4[nH]ccc34)cc2)CC1 [Compound 335]	10
Cc1c(Nc2c(C#N)cncc2-c2cc3cc(C4OCCCO4)ccc3o2)ccc2[nH]ccc12 [Compound 370]	4
Cc1c(Nc2c(C#N)cncc2-c2ccc(CN3CCOCC3)cc2)ccc2[nH]ccc12 [Compound 451]	9

(a) Cc1c(Nc2c(C#N)cncc2-c2cc3cc(CN4CCC(N5CCOCC5)CC4)ccc3o2)ccc2[nH]ccc12 [Compound 395]
(b) CCCCN1CCN(CCOc2ccc(-c3cncc(C#N)c3Nc3ccc4[nH]ccc4c3C)cc2)CC1 [Compound 368]
Consider a and b . Which of these has its IC50 at a higher number? When you have decided, please share the label of that item.
b
